System: foxtail, giant (giant foxtail, Setaria faberii)
ASSAY_EXPLANATION: Test A pre-/postemergence: foxtail, giant
Type: in vivo
RECORDED_CONDITIONS: Postemergence, 500 g ai/ha; visual rating on 0 to 100 scale (0 no effect, 100 complete control), approximately ten days
Each entry below carries its reported Foxtail, Giant plant response rating.
TEST_READOUT: Foxtail, Giant plant response rating

>>> measured("Cc1nn(-c2ccccc2)nc1C(=O)c1cccc(C(F)(F)F)c1")
30
>>> measured("Cc1nn(-c2ccc(F)cc2Cl)nc1Cc1ccnc(C(F)(F)F)c1")
70
>>> measured("Cc1nn(-c2ccc(C(F)(F)F)cn2)nc1Cn1ccc(C(F)(F)F)n1")
90
>>> measured("Fc1ccc(-n2nc(F)c(Cc3ccnc(C(F)(F)F)c3)n2)cc1")
90
>>> measured("COc1nn(-c2ccc(C(F)(F)F)cc2)nc1Cc1cccc(C(F)(F)F)c1")
90
